# MEASURED TARGET: HLA-A*02:01 (Homo sapiens, UniProt P04439, D140Y/D185E/D98H/E176V/E277Q/G131W/G231S/I119V/I121R/I166T/I218V/L300P/L318F/N151K/N90K/P208A/P217A/Q86G/Q94H/R138H/R169H/T345S)
# TEST DESCRIPTION: MHC binding assay: UV-ligand exchange with beta2m ELISA (peptide exchange yield)
# CONDITION DETAILS: binding to HLA-A*02:01
READOUT TYPE: Peptide exchange (MHC class I binding score, peptide exchange yield)

{"SUBSTANCE": "283 (ALYIGDGYVIHLA; listed as Homo sapiens) [compound 283]", "RESULT": "“+++” (≥50 = +++)"}
{"SUBSTANCE": "507 (KLIDDQDISISL; listed as Homo sapiens) [compound 507]", "RESULT": "“+++” (≥50 = +++)"}
{"SUBSTANCE": "9 (GAAKDLPGV; listed as Homo sapiens) [compound 9]", "RESULT": "“++” (≥20% = ++)"}
{"SUBSTANCE": "586 (KLKPGDLVGV; listed as Homo sapiens) [compound 586]", "RESULT": "“+++” (≥50 = +++)"}
{"SUBSTANCE": "402 (VLFSGALLGL; listed as Homo sapiens) [compound 402]", "RESULT": "“++” (≥20% = ++)"}

The substance 565 (ALQETPTSV; listed as Homo sapiens) [compound 565] showed Peptide exchange (MHC class I binding score, peptide exchange yield) equal to “++” (≥20% = ++)

The substance 218 (SALEELVNV; listed as Homo sapiens) [compound 218] showed Peptide exchange (MHC class I binding score, peptide exchange yield) equal to “++” (≥20% = ++)
